Data provenance: paper PMC9490041

# MEASURED TARGET: PSG (PSD-95)
# EXPERIMENT: FP displacement (competition) of FITC-15 AA CRIPT by library peptide, IC50 and Ki
# DETAILS: read-out: IC50 (µM), PSG; FP displacement of FITC-15 AA CRIPT probe by acetylated PSD library peptide
RESULT TYPE: IC50 (µM)
Answers are plain numbers, in µM.

Quick check: IC50 of "CC(=O)N[C@@H](Cc1ccc(O)cc1)C(=O)N[C@H](C(=O)N[C@@H](CCC(=O)O)C(=O)N[C@@H](CO)C(=O)N[C@@H](CCCCN)C(=O)N[C@@H](CCCCN)C(=O)N[C@@H](Cc1c[nH]cn1)C(=O)NCC(=O)N[C@@H](CCCNC(=N)N)C(=O)N[C@@H](Cc1c[nH]c2ccccc12)C(=O)N[C@@H](CCCCN)C(=O)N[C@@H](CC(C)C)C(=O)N[C@@H](Cc1c[nH]c2ccccc12)C(=O)N[C@@H](Cc1ccccc1)C(=O)N[C@@H](CC(C)C)C(=O)O)[C@@H](C)O" ?
380

###

# MEASURED TARGET: PSG G335A (PSD-95)
# EXPERIMENT: FP displacement (competition) of FITC-15 AA CRIPT by library peptide, IC50 and Ki
# DETAILS: read-out: IC50 (µM), PSG G335A; FP displacement of FITC-15 AA CRIPT probe by PSD library peptide; protein PSG G335A
RESULT TYPE: IC50 (µM)
Answers are plain numbers, in µM.

Past entries and their recorded results:
| QUERY SMILES | UNIT TAG | IC50 |
| --- | --- | --- |
| CC(=O)N[C@@H](Cc1ccc(O)cc1)C(=O)N[C@@H](Cc1ccc(O)cc1)C(=O)N[C@@H](CCC(=O)O)C(=O)N[C@H](C(=O)N[C@@H](CO)C(=O)N[C@@H](Cc1c[nH]cn1)C(=O)N[C@@H](Cc1ccc(O)cc1)C(=O)N1CCC[C@H]1C(=O)N[C@@H](C)C(=O)N[C@@H](CO)C(=O)N1CCC[C@H]1C(=O)N[C@@H](CC(=O)O)C(=O)N[C@@H](CO)C(=O)N[C@@H](Cc1c[nH]c2ccccc12)C(=O)N[C@H](C(=O)O)C(C)C)[C@@H](C)O | µM | 1020 |
| CC[C@H](C)[C@H](NC(=O)[C@H](CCCCN)NC(=O)[C@@H]1CCCN1C(=O)[C@H](CC(C)C)NC(=O)[C@H](CCCNC(=N)N)NC(=O)[C@H](Cc1c[nH]cn1)NC(=O)[C@H](CO)NC(=O)CNC(=O)[C@H](CC(=O)O)NC(=O)[C@H](Cc1ccc(O)cc1)NC(C)=O)C(=O)N[C@@H](CCCCN)C(=O)N[C@@H](CCC(=O)O)C(=O)N[C@H](C(=O)N[C@H](C(=O)N[C@H](C(=O)O)C(C)C)[C@@H](C)O)[C@@H](C)O | µM | 2.55 |
| CC[C@H](C)[C@H](NC(=O)[C@H](CCC(=O)O)NC(=O)[C@@H](NC(=O)[C@H](CO)NC(=O)[C@H](CCC(=O)O)NC(=O)[C@@H](NC(=O)[C@H](CCCNC(=N)N)NC(=O)[C@H](CCC(=O)O)NC(=O)[C@H](CC(C)C)NC(=O)[C@H](CCCNC(=N)N)NC(=O)[C@H](CO)NC(=O)[C@@H]1CCCN1C(=O)[C@@H](NC(=O)[C@H](Cc1c[nH]c2ccccc12)NC(=O)[C@H](Cc1ccc(O)cc1)NC(C)=O)[C@@H](C)O)[C@@H](C)CC)[C@@H](C)O)C(=O)O | µM | 630 |
| CC[C@H](C)[C@H](NC(=O)[C@H](CCC(=O)O)NC(=O)[C@@H](NC(=O)[C@H](C)NC(=O)[C@@H](NC(=O)[C@@H](NC(=O)[C@H](CC(=O)O)NC(=O)[C@H](CCC(=O)O)NC(=O)[C@H](Cc1ccc(O)cc1)NC(=O)[C@@H]1CCCN1C(=O)[C@@H](NC(=O)[C@H](CC(=O)O)NC(=O)[C@H](C)NC(=O)CNC(=O)[C@H](Cc1ccc(O)cc1)NC(C)=O)[C@@H](C)CC)[C@@H](C)CC)[C@@H](C)CC)[C@@H](C)O)C(=O)O | µM | 648 |

Please look at the following molecule next.
Quick check: IC50 of "CC(=O)N[C@@H](Cc1ccc(O)cc1)C(=O)N[C@@H](CO)C(=O)N[C@@H](CO)C(=O)N[C@H](C(=O)N[C@@H](CO)C(=O)N1CCC[C@H]1C(=O)N[C@@H](CCC(N)=O)C(=O)N[C@@H](CO)C(=O)N[C@H](C(=O)N[C@@H](CC(=O)O)C(=O)N[C@@H](CCCCN)C(=O)N[C@@H](CO)C(=O)N[C@@H](CO)C(=O)N[C@H](C(=O)N[C@H](C(=O)O)C(C)C)[C@@H](C)O)[C@@H](C)O)[C@@H](C)O" ?
603

###

# MEASURED TARGET: PSG (PSD-95)
# EXPERIMENT: FP displacement (competition) of FITC-15 AA CRIPT by library peptide, IC50 and Ki
# DETAILS: read-out: IC50 (µM), PSG; FP displacement of FITC-15 AA CRIPT probe by acetylated PSD library peptide
RESULT TYPE: log10 IC50 (log10 of the value in µM)
Please interpret these as log10 of IC50 where IC50 is in µM.

Need log10 IC50 for each of these compounds.
1. CC(=O)N[C@@H](Cc1ccc(O)cc1)C(=O)N[C@@H](C)C(=O)N[C@@H](CO)C(=O)N[C@@H](CC(N)=O)C(=O)N[C@H](C(=O)N[C@@H](CC(N)=O)C(=O)N[C@H](C(=O)N[C@@H](CC(C)C)C(=O)N[C@@H](CC(N)=O)C(=O)N[C@@H](CCCNC(=N)N)C(=O)N[C@@H](CCCCN)C(=O)N[C@H](C(=O)N[C@H](C(=O)N1CCC[C@H]1C(=O)N[C@H](C(=O)O)C(C)C)[C@@H](C)O)[C@@H](C)O)[C@@H](C)O)[C@@H](C)O
2. CC[C@H](C)[C@H](NC(=O)[C@H](Cc1ccc(O)cc1)NC(=O)[C@H](CO)NC(=O)CNC(=O)[C@H](CO)NC(=O)[C@H](CCC(N)=O)NC(=O)[C@H](Cc1ccc(O)cc1)NC(C)=O)C(=O)N[C@@H](Cc1c[nH]c2ccccc12)C(=O)N[C@H](C(=O)N1CCC[C@H]1C(=O)N[C@@H](C)C(=O)N[C@@H](CCCCN)C(=O)N[C@@H](CCC(=O)O)C(=O)N[C@@H](CCCCN)C(=O)N[C@@H](CC(C)C)C(=O)O)C(C)C
3. CC(=O)N[C@@H](Cc1ccc(O)cc1)C(=O)N[C@@H](CC(N)=O)C(=O)N[C@@H](CO)C(=O)N[C@H](C(=O)N[C@@H](CC(N)=O)C(=O)N[C@@H](CC(C)C)C(=O)N1CCC[C@H]1C(=O)N[C@@H](Cc1c[nH]cn1)C(=O)NCC(=O)N[C@@H](Cc1c[nH]cn1)C(=O)N[C@@H](CO)C(=O)N[C@H](C(=O)N[C@H](C(=O)N[C@@H](CCCNC(=N)N)C(=O)N[C@H](C(=O)O)C(C)C)[C@@H](C)O)[C@@H](C)O)[C@@H](C)O
4. CC[C@H](C)[C@H](NC(=O)[C@H](CC(C)C)NC(=O)[C@H](C)NC(=O)[C@@H](NC(=O)[C@H](C)NC(=O)[C@H](Cc1ccc(O)cc1)NC(C)=O)C(C)C)C(=O)N[C@@H](C)C(=O)N[C@@H](Cc1ccc(O)cc1)C(=O)N[C@@H](CC(C)C)C(=O)N[C@@H](CO)C(=O)N[C@@H](CCCCN)C(=O)N[C@@H](CC(N)=O)C(=O)N[C@@H](CC(N)=O)C(=O)N[C@@H](Cc1c[nH]cn1)C(=O)N[C@@H](CC(C)C)C(=O)O [SYNG1]
5. CC[C@H](C)[C@H](NC(=O)[C@H](CO)NC(=O)[C@H](CCC(N)=O)NC(=O)[C@H](CCCNC(=N)N)NC(=O)[C@H](CCCCN)NC(=O)[C@H](CO)NC(=O)[C@H](CC(=O)O)NC(=O)[C@@H]1CCCN1C(=O)[C@H](Cc1ccc(O)cc1)NC(C)=O)C(=O)N[C@@H](CC(C)C)C(=O)N[C@@H](Cc1ccccc1)C(=O)N[C@@H](CO)C(=O)N[C@H](C(=O)N[C@@H](CCC(=O)O)C(=O)N[C@H](C(=O)O)C(C)C)[C@@H](C)O

1. 2.06
2. 3.17
3. 2.26
4. 3.16
5. 2.04

###

For each entry below, report its Ki value.
# MEASURED TARGET: PSG (PSD-95)
# EXPERIMENT: FP displacement (competition) of FITC-15 AA CRIPT by library peptide, IC50 and Ki
# DETAILS: read-out: Ki (µM), PSG; FP displacement of FITC-15 AA CRIPT probe by PSD library peptide; protein PSG (wild type)
One number for each entry, in µM.

| QUERY SMILES | ASSAY VALUE |
| --- | --- |
| CC(=O)N[C@@H](Cc1ccc(O)cc1)C(=O)N1CCC[C@H]1C(=O)N[C@@H](CCC(N)=O)C(=O)N[C@@H](Cc1c[nH]cn1)C(=O)N[C@@H](CC(C)C)C(=O)N[C@@H](CCCNC(=N)N)C(=O)N[C@H](C(=O)N[C@@H](C)C(=O)N[C@@H](CO)C(=O)N[C@@H](CCCCN)C(=O)N[C@@H](CC(N)=O)C(=O)N[C@@H](CCC(=O)O)C(=O)N[C@H](C(=O)N[C@H](C(=O)N[C@H](C(=O)O)C(C)C)[C@@H](C)O)C(C)C)[C@@H](C)O | 475 |
| CC(=O)N[C@@H](Cc1ccc(O)cc1)C(=O)N[C@@H](CCC(=O)O)C(=O)N[C@@H](CCC(=O)O)C(=O)N[C@@H](CCC(=O)O)C(=O)N[C@@H](CC(C)C)C(=O)N[C@@H](CCC(N)=O)C(=O)N[C@@H](CC(=O)O)C(=O)N[C@@H](CO)C(=O)N[C@@H](CCCNC(=N)N)C(=O)N[C@H](C(=O)N[C@@H](Cc1ccc(O)cc1)C(=O)N[C@H](C(=O)N[C@@H](CO)C(=O)N[C@@H](CO)C(=O)N[C@@H](CC(C)C)C(=O)O)C(C)C)C(C)C | 105 |
| CC(=O)N[C@@H](Cc1ccc(O)cc1)C(=O)N[C@@H](CC(C)C)C(=O)N[C@@H](C)C(=O)N[C@@H](CC(=O)O)C(=O)N[C@@H](CCC(=O)O)C(=O)N[C@H](C(=O)N[C@@H](CO)C(=O)N[C@@H](C)C(=O)N[C@@H](CO)C(=O)N[C@@H](CC(C)C)C(=O)N[C@@H](C)C(=O)N[C@@H](CCCCN)C(=O)N[C@@H](CCC(N)=O)C(=O)NCC(=O)N[C@@H](CC(C)C)C(=O)O)C(C)C | 884 |

Need Ki for each of these compounds.
1. CC[C@H](C)[C@H](NC(=O)[C@H](CO)NC(=O)[C@@H]1CCCN1C(=O)[C@H](CCSC)NC(=O)[C@H](CCCCN)NC(=O)[C@H](CCCCN)NC(=O)[C@H](Cc1ccc(O)cc1)NC(=O)[C@@H](NC(=O)[C@H](CCCNC(=N)N)NC(=O)[C@H](CCCNC(=N)N)NC(=O)[C@H](Cc1ccc(O)cc1)NC(C)=O)C(C)C)C(=O)N[C@@H](CCC(=O)O)C(=O)N[C@@H](CO)C(=O)N[C@@H](CC(=O)O)C(=O)N[C@H](C(=O)O)C(C)C
2. CC[C@H](C)[C@H](NC(=O)[C@H](CC(N)=O)NC(=O)CNC(=O)CNC(=O)[C@H](CO)NC(=O)[C@H](Cc1ccc(O)cc1)NC(=O)[C@H](CCC(=O)O)NC(=O)[C@@H]1CCCN1C(=O)[C@H](Cc1ccc(O)cc1)NC(C)=O)C(=O)N[C@H](C(=O)N[C@@H](CCCNC(=N)N)C(=O)N[C@H](C(=O)N[C@@H](CO)C(=O)N[C@@H](C)C(=O)N[C@@H](CC(C)C)C(=O)O)C(C)C)C(C)C

1: 243; 2: 793
